Cited source: ChEMBL document CHEMBL4406875

Test system: MDCK
EXPERIMENT: Cytotoxicity against dog MDCK cells assessed as cell viability measured at 100 uM after 45 hrs by Celltiter-Glo luminescence assay
Type: cell-based, Canis lupus familiaris

| SMILES_INPUT | Activity |
| --- | --- |
| COC(=O)[C@@H](NC(=O)[C@]12CCC(C)(C)C[C@H]1C1=CC[C@@H]3[C@@]4(C)CC[C@H](O)C(C)(C)[C@@H]4CC[C@@]3(C)[C@]1(C)CC2)[C@@H](C)O | Toxic |
| C[C@@H](O)[C@H](NC(=O)[C@]12CCC(C)(C)C[C@H]1C1=CC[C@@H]3[C@@]4(C)CC[C@H](O)C(C)(C)[C@@H]4CC[C@@]3(C)[C@]1(C)CC2)C(=O)O | Toxic |
| CC1(C)CC[C@]2(C(=O)N[C@@H](Cc3c[nH]c4ccccc34)C(=O)O)CC[C@]3(C)C(=CC[C@@H]4[C@@]5(C)CC[C@H](O)C(C)(C)[C@@H]5CC[C@]43C)[C@@H]2C1 | Toxic |
